Tgt: Jak2 (human Jak2 kinase domain, amino acids 808-1132) (Homo sapiens (Human))
Protocol text: Jak2 inhibition assay (Omnia kinase assay)
Assay type: biochemical
Study conditions: read-out: Jak2 Enzyme (% inhibition at 1000 nM), Table 1; 1000 nM test compound
Property name: inhibition at 1 µM (%)
Unit % implied. Number only.

Some solved cases for reference:
Compound: COCC(C)NC(=O)c1cnn2ccc(N3CCCC3c3cncc(F)c3)nc12 (centres unmarked) [Example 118]
Units symbol: %
Numeric readout: -4.5
--
Compound: CNC(=O)c1cnn2ccc(N3CCC[C@@H]3c3cc(F)ccc3F)nc12 [Example 10]
Units symbol: %
Numeric readout: 47.5
--
Compound: O=C(NC1CC1)c1cnn2ccc(N3CCC[C@@H]3c3cc(F)ccc3OCCN3CCOCC3)nc12 [Example 87]
Units symbol: %
Numeric readout: 37.2
--
Compound: COc1ncc(F)cc1[C@H]1CCCN1c1ccn2ncc(C(=O)NC[C@H](C)O)c2n1 [Example 156]
Units symbol: %
Numeric readout: 16.1
--
Compound: CNC(=O)c1cnn2ccc(N3CCC[C@@H]3c3cncc(F)c3)nc12 [Example 114]
Units symbol: %
Numeric readout: 5

For the compound COc1ncc(F)cc1[C@H]1CCCN1c1ccn2ncc(C(=O)NC[C@@H](C)O)c2n1 [Example 157] , give its reported inhibition at 1 µM. 9.6

For the compound CC(C)(C)NC(=O)c1cnn2ccc(N3CCC[C@@H]3c3cc(F)ccc3F)nc12 [Example 1] , give its reported inhibition at 1 µM. 39.5

For the compound C[C@H](NC(=O)c1cnn2ccc(N3C[C@@H](O)C[C@@H]3c3cccc(F)c3)nc12)C(F)(F)F [Example 216] , give its reported inhibition at 1 µM. 54

For the compound C[C@@H](O)CNC(=O)c1cnn2ccc(N3CCC[C@@H]3c3cncc(F)c3)nc12 [Example 110] , give its reported inhibition at 1 µM. -0.5

For the compound CC(C)(CO)CNC(=O)c1cnn2ccc(N3CCC[C@@H]3c3cncc(F)c3)nc12 [Example 125] , give its reported inhibition at 1 µM. 6.1

For the compound COc1ncc(F)cc1[C@H]1CCCN1c1ccn2ncc(C(=O)NC(C)(C)C)c2n1 [Example 80] , give its reported inhibition at 1 µM. 50.7

----------
Tgt: Jak2 (human Jak2 kinase domain, amino acids 808-1132) (Homo sapiens (Human))
Protocol text: Jak2 inhibition assay (Omnia kinase assay)
Assay type: biochemical
Study conditions: read-out: Jak2 Enzyme (% inhibition at 1000 nM), Table 1; 1000 nM test compound
Outcome: TRUE for inhibition at 1 µM of at least 20%; FALSE for anything lower.

Known results for molecules:
Molecule: C[C@H](NC(=O)c1cnn2ccc(N3CCC[C@@H]3c3cc(F)cn(C)c3=O)nc12)C1CC1
Assigned class: TRUE
//
Molecule: CC1(O)CN(C(=O)c2cnn3ccc(N4CCC[C@@H]4c4cc(F)ccc4F)nc23)C1
Assigned class: FALSE

Test whether the molecule O=C(O)C1CCN(C(=O)c2cnn3ccc(N4CCC[C@@H]4c4cc(F)ccc4F)nc23)CC1 records inhibition at 1 µM of 20% or higher. FALSE

Test whether the molecule Cc1ncc(F)cc1[C@H]1CCCN1c1ccn2ncc(C(=O)N[C@@H]3CCC[C@H]3O)c2n1 records inhibition at 1 µM of 20% or higher. FALSE

Test whether the molecule Cn1cc(F)cc([C@H]2CCCN2c2ccn3ncc(C(=O)Nc4ccc(F)cn4)c3n2)c1=O records inhibition at 1 µM of 20% or higher. FALSE

Test whether the molecule CC(C)(CO)NC(=O)c1cnn2ccc(N3CCC[C@@H]3c3cc(F)ccc3F)nc12 records inhibition at 1 µM of 20% or higher. TRUE

Test whether the molecule O=C(c1cnn2ccc(N3CCC[C@@H]3c3cncc(F)c3)nc12)N1CC[C@H](O)C1 records inhibition at 1 µM of 20% or higher. FALSE

Test whether the molecule CC(C)(CO)NC(=O)c1cnn2ccc(N3CCC[C@@H]3c3cncc(F)c3)nc12 records inhibition at 1 µM of 20% or higher. FALSE

----------
Listed below: inhibition at 1 µM values for each entry.
Tgt: Jak2 (human Jak2 kinase domain, amino acids 808-1132) (Homo sapiens (Human))
Protocol text: Jak2 inhibition assay (Omnia kinase assay)
Format: biochemical
Study conditions: read-out: Jak2 Enzyme (% inhibition at 1000 nM), Table 1; 1000 nM test compound
Description: The assays described in Examples C, D, E and F for the determination of JAK1, JAK2, JAK3 and Tyk2 kinase activity, respectively, utilized the Omnia® Kinase fluorescence peptide substrate-based technology (Invitrogen). […] The reactions were therefore read at excitation 360 nm and emission was measured at 485 nm every 50 seconds for 45 minutes using a PerkinElmer EnVision Multilabel Plate Reader. […]
Unit % implied. Number only.

Some solved cases for reference:
Compound: Cc1ncc(F)cc1[C@H]1CCCN1c1ccn2ncc(C(=O)N[C@H]3CC[C@H](O)CC3)c2n1
Numeric readout: 31.2

Compound: CC(C)(C)[C@@H](CO)NC(=O)c1cnn2ccc(N3CCC[C@@H]3c3cc(F)ccc3F)nc12
Numeric readout: -0.8

For the compound CC(C)(CF)NC(=O)c1cnn2ccc(N3CCC[C@@H]3c3cc(F)ccc3F)nc12 , give its reported inhibition at 1 µM. 41.4

For the compound O=C(NC1CC1)c1cnn2ccc(N3CCC[C@@H]3c3cc(F)ccc3OCC(O)CO)nc12 (some centres unmarked) , give its reported inhibition at 1 µM. 32.3

For the compound CC1(C)OCC(COc2ccc(F)cc2[C@H]2CCCN2c2ccn3ncc(C(=O)NC4CC4)c3n2)O1 (some centres unmarked) , give its reported inhibition at 1 µM. 37

----------
Tgt: Jak2 (human Jak2 kinase domain, amino acids 808-1132) (Homo sapiens (Human))
Protocol text: Jak2 inhibition assay (Omnia kinase assay)
Assay type: biochemical
Study conditions: read-out: Jak2 Enzyme (% inhibition at 1000 nM), Table 1; 1000 nM test compound
Listed below: inhibition at 1 µM values for each entry.
Unit % implied. Number only.

Molecule: CNC(=O)c1cnn2ccc(N3CCC[C@@H]3c3cc(F)cnc3C)nc12
inhibition at 1 µM [%]: 10.5

For the molecule Cn1cc(F)cc([C@H]2CCCN2c2ccn3ncc(C(=O)N[C@@H]4CCCC[C@H]4O)c3n2)c1=O , give its reported inhibition at 1 µM. 5.3

For the molecule CC1(O)CN(C(=O)c2cnn3ccc(N4CCC[C@@H]4c4cncc(F)c4)nc23)C1 , give its reported inhibition at 1 µM. 0.5

For the molecule O=C(c1cnn2ccc(N3CCC[C@@H]3c3cncc(F)c3)nc12)N1CC(CO)C1 , give its reported inhibition at 1 µM. 0.2

----------
Tgt: Jak2 (human Jak2 kinase domain, amino acids 808-1132) (Homo sapiens (Human))
Protocol text: Jak2 inhibition assay (Omnia kinase assay)
Assay type: biochemical
Study conditions: read-out: Jak2 Enzyme (% inhibition at 1000 nM), Table 1; 1000 nM test compound
Procedure: The assays described in Examples C, D, E and F for the determination of JAK1, JAK2, JAK3 and Tyk2 kinase activity, respectively, utilized the Omnia® Kinase fluorescence peptide substrate-based technology (Invitrogen). […] The reactions were therefore read at excitation 360 nm and emission was measured at 485 nm every 50 seconds for 45 minutes using a PerkinElmer EnVision Multilabel Plate Reader. […]
Property name: inhibition at 1 µM (%)
Unit % implied. Number only.

Some solved cases for reference:
Compound: NCCCNC(=O)c1cnn2ccc(N3CCC[C@@H]3c3cc(F)c[nH]c3=O)nc12
Tgt: Jak2 (human Jak2 kinase domain, amino acids 808-1132) (Homo sapiens (Human))
inhibition at 1 µM / %: -0.9
//
Compound: Cn1cc(F)cc([C@H]2CCCN2c2ccn3ncc(C(=O)NC(C)(C)C)c3n2)c1=O
Tgt: Jak2 (human Jak2 kinase domain, amino acids 808-1132) (Homo sapiens (Human))
inhibition at 1 µM / %: 100
//
Compound: C[C@H](O)CNC(=O)c1cnn2ccc(N3CCC[C@@H]3c3cncc(F)c3)nc12
Tgt: Jak2 (human Jak2 kinase domain, amino acids 808-1132) (Homo sapiens (Human))
inhibition at 1 µM / %: -0.3
//
Compound: O=C(N[C@H]1CCC[C@H]1O)c1cnn2ccc(N3CCC[C@@H]3c3cncc(F)c3)nc12
Tgt: Jak2 (human Jak2 kinase domain, amino acids 808-1132) (Homo sapiens (Human))
inhibition at 1 µM / %: 6.1

For the compound O=C(NC1CCC1)c1cnn2ccc(N3CCC[C@@H]3c3cncc(F)c3)nc12 , give its reported inhibition at 1 µM. 26.2

----------
Tgt: Jak2 (human Jak2 kinase domain, amino acids 808-1132) (Homo sapiens (Human), UniProt O60674)
Sequence (O60674 808-1132): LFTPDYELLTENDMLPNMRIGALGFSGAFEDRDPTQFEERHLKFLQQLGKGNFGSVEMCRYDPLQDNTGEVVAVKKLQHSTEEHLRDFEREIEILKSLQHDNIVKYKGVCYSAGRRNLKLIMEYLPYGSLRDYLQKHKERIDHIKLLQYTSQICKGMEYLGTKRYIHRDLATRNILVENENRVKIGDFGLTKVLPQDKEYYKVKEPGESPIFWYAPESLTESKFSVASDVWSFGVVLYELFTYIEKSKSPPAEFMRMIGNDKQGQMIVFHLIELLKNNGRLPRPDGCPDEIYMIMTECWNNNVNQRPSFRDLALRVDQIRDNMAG
Protocol text: Jak2 inhibition assay (Omnia kinase assay)
Type: biochemical
Study conditions: read-out: Jak2 Enzyme (% inhibition at 1000 nM), Table 1; 1000 nM test compound
Property name: inhibition at 1 µM (%)
Unit % implied. Number only.

Compound: CN1CCN(CCNC(=O)c2cnn3ccc(N4CCC[C@@H]4c4cc(F)ccc4F)nc23)CC1
inhibition at 1 µM (%): 7.8
//
Compound: COc1ncc(F)cc1[C@H]1CCCN1c1ccn2ncc(C(=O)NC(C)(C)CF)c2n1
inhibition at 1 µM (%): 54.4
//
Compound: O=C(NCCc1c[nH]cn1)c1cnn2ccc(N3CCC[C@@H]3c3cc(F)ccc3F)nc12
inhibition at 1 µM (%): 19.4

For the compound O=C(NCC(F)CCl)c1cnn2ccc(N3CCC[C@@H]3c3cncc(F)c3)nc12 (some centres unmarked) , give its reported inhibition at 1 µM. 6.8

For the compound CC1(O)CCC(NC(=O)c2cnn3ccc(N4CCC[C@@H]4c4cc(F)ccc4F)nc23)CC1 (single isomer, unassigned; diastereomer 1) , give its reported inhibition at 1 µM. 73.7
